Tested on: HOP-92
PROCEDURE_TEXT: NCI tumour cell line growth inhibition, 48 h
Activity calls are given as the source filed them. No stated cut-off is given here; in the data, active = GI50 up to about 1.1 µM and inactive = higher.
Listed here are compounds together with their documented GI50.

Below: 5 compounds and their reported GI50.
[
  {
    "COMPOUND": "COC(=O)C(CC(=O)Nc1ccc(Cl)c(Cl)c1)C(=O)C(=O)NC1C2CC3CC(C2)CC1C3 (stereo not given)",
    "GI50": "> 100 µM (inactive)"
  },
  {
    "COMPOUND": "COc1ccc(C(=O)/C=C/c2cccnc2)cc1OC",
    "GI50": "13 µM (inactive)"
  },
  {
    "COMPOUND": "Cc1ccc2nc3ccccc3c(C3C4C(=O)N(c5ccc(F)cc5)C(=O)C4ON3C(C(N)=O)c3ccccc3)c2c1 (stereo not given)",
    "GI50": "37.1 µM (inactive)"
  },
  {
    "COMPOUND": "N#Cc1cccnc1Cl",
    "GI50": "> 100 µM (inactive)"
  },
  {
    "COMPOUND": "Nc1nc(Cl)cc(NCCCCCCCCCCNc2cc(Cl)nc(N)n2)n1",
    "GI50": "28.6 µM (inactive)"
  }
]

// next entry
Exercise: Requested field: GI50. Item: O=C(O)C1(Cc2ccc3c(c2)CCC3)Cc2cc3c(cc2C1)CCC3
Key: > 100 µM (inactive)
